ASSAY_REMARKS: Metabolic stability in rat assessed as parent compound remaining
Format: ADME
OBSERVABLE: Stability (%)
Lab book: enter the figure in %, no units written.

[in] Sample FC(F)(F)c1ccc(-c2ccc3nc(Cl)nc(N[C@@H]4C[C@H]5CC[C@@H]4C5)c3c2)cc1 — what was its Stability?
[out] 84

[in] Thanks! And Clc1nc(N[C@@H]2C[C@H]3CC[C@@H]2C3)c2cc(-c3ccc(Cl)c(Cl)c3)ccc2n1 ?
[out] 59

[in] Thanks! And Cc1nc(N[C@@H]2C[C@H]3CC[C@@H]2C3)c2cc(-c3cccc(C(F)(F)F)c3)ccc2n1 ?
[out] 41

More entries:
[in] Sample Cc1nc(N[C@@H]2C[C@H]3CC[C@@H]2C3)c2cc(-c3cccc(Cl)c3)ccc2n1 — what was its Stability?
[out] 23

---

Recorded measurements of Stability, one per entry
ASSAY_REMARKS: Metabolic stability in mouse assessed as parent compound remaining
Format: ADME

Consider the reported Stability for these compounds:
[in] Sample Cc1nc(N[C@@H]2C[C@H]3CC[C@@H]2C3)c2cc(-c3cccc(C(F)(F)F)c3)ccc2n1 — what was its Stability?
[out] 41%

[in] Thanks! And Cc1nc(N[C@@H]2C[C@H]3CC[C@@H]2C3)c2cc(-c3ccc(Cl)cc3)ccc2n1 ?
[out] 39%

Field: next compound
[in] Sample Clc1ccc(-c2ccc3nc(Cl)nc(N[C@@H]4C[C@H]5CC[C@@H]4C5)c3c2)cc1 — what was its Stability?
[out] 40%
